Taken from patent US20250011363A1.

Target: acetylcholine receptor (Homo sapiens, UniProt P02708)
Sequence (P02708 21-457): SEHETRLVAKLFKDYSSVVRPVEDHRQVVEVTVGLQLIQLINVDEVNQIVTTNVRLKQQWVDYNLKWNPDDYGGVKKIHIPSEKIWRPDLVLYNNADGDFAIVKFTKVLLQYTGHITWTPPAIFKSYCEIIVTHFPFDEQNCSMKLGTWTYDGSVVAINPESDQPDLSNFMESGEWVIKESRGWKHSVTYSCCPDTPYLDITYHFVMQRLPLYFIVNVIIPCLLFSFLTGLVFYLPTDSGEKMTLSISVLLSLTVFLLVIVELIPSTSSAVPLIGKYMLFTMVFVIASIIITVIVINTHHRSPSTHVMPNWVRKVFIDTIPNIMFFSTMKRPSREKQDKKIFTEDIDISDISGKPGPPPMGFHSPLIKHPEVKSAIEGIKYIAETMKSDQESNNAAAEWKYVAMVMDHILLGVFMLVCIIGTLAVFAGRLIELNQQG
Assay: SPR binding affinity (RU) of optimized 5mer/6mer/7mer peptides, Examples 6-7
Settings: SPR, peptides tested at 10 μM; 6mer-1 Bottom sequence (Table 11)
Rule for this label: Satisfied means Binding affinity is less than 30 Ru; Not satisfied means Binding affinity is at least 30 Ru.

Use these answered entries as a reference point.
6mer-1-942 (RRMMVR): Not satisfied
6mer-1-952 (KRHDKK): Satisfied
6mer-1-920 (RRPAMR): Not satisfied
6mer-1-944 (RKPAGK): Satisfied

**Q:** In the record for 6mer-1-992 (RRCTAK) , is Binding affinity less than 30 Ru?
**A:** Satisfied

**Q:** In the record for 6mer-1-848 (RKTMFK) , is Binding affinity less than 30 Ru?
**A:** Satisfied

**Q:** In the record for 6mer-1-915 (RKDTWK) , is Binding affinity less than 30 Ru?
**A:** Satisfied
